procedure.details: Particle size analysis by laser diffraction of neat API
Assay type: physicochemical
assay.setup: dispersed in cyclohexane
property.label: Particle Size Mode (μm)

{"compound": "CC(C(=O)O)c1cccc(C(=O)c2ccccc2)c1 (racemic) [Ketoprofen, (RS)2-(3-benzoylphenyl)-propionic acid]", "readout.value": 28}

(P) CC(C)Cc1ccc(C(C)C(=O)O)cc1 (stereo not shown)
(Q) CC(=O)Nc1ccc(O)cc1
Qu. // pick larger Particle Size Mode from pair: P vs Q I would appreciate it if you answered with the label of your choice.
Ans. P
(P: 72 μm, Q: 42 μm)

====

procedure.details: Particle size analysis by laser diffraction of neat API
Format: physicochemical
assay.setup: dispersed in cyclohexane
property.label: Particle Size Median (μm)

{"molecule": "COc1ccc2cc(C(C)C(=O)O)ccc2c1 (stereo not shown) [Naproxen]", "Particle Size Median, μm": 23}

(1) CC(C)Cc1ccc(C(C)C(=O)O)cc1 (stereo not shown) [Ibuprofen, iso-butyl-propanoic-phenolic acid]
(2) CC(C(=O)O)c1cccc(C(=O)c2ccccc2)c1 (racemic) [Ketoprofen, (RS)2-(3-benzoylphenyl)-propionic acid]
(3) CC(=O)Nc1ccc(O)cc1 [Acetaminophen, N-acetyl-para-aminophenol]
Qu. Order the 3 molecules from highest to lowest Particle Size Median. Present the labels in the sequence the task asks for.
Ans. 1, 3, 2
(1: 70 μm, 3: 44 μm, 2: 27 μm)

====

procedure.details: Particle size analysis by laser diffraction of neat API
Format: physicochemical
assay.setup: dispersed in cyclohexane
property.label: Particle Size Mean (μm)

Worked set:
{"molecule": "CC(=O)Nc1ccc(O)cc1", "Particle Size Mean / μm": 58}
{"molecule": "CC(C(=O)O)c1cccc(C(=O)c2ccccc2)c1 (racemic) [Ketoprofen, (RS)2-(3-benzoylphenyl)-propionic acid]", "Particle Size Mean / μm": 34}

(a) CC(C)Cc1ccc(C(C)C(=O)O)cc1 (stereo not shown)
(b) COc1ccc2cc(C(C)C(=O)O)ccc2c1 (stereo not shown)
Qu. Could you tell me which of these two has the smaller Particle Size Mean figure? First: a Second: b I would appreciate it if you answered with the label of your choice.
Ans. b
